Just for reference, patent US20220088148A1 is where these values come from.

Answer each item with its documented In vitro activity (%) vs. GIP, cAMP EC50.
Molecular target: T1, human GIP receptor (human, UniProt P48546 22-466)
T1 sequence (looked up): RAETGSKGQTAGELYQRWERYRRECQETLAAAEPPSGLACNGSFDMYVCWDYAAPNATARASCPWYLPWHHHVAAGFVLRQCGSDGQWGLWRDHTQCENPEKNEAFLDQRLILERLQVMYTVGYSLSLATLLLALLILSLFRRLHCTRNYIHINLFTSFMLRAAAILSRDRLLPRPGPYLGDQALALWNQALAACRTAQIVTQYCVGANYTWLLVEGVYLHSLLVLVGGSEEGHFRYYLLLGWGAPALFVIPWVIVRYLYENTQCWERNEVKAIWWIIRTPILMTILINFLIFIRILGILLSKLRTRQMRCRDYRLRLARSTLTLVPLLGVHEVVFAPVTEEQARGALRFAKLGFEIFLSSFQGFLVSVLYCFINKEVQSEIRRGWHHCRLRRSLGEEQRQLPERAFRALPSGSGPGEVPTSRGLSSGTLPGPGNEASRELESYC
Assay: cell-based or functional assay
Bridges are numbered along the chain shown (N, C = ends). Where no end group is shown, it is not given here. [ ]: non-standard residue; d: D form. Aib = CC(C)(N)C(=O)O
Numbers only, in %.

Example cases with answers are listed next.
Data request: Please report the recorded In vitro activity (%) vs. GIP, cAMP EC50 for H[Aib]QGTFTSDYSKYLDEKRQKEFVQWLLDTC (bridge 16-20; ends not checked) [triple agonist of SEQ ID NO: 52] .
Data returned: 0.3

Data request: // same read-out, input: Y[Aib]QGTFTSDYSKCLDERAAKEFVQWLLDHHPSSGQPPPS (bridge 16-20; ends not checked) [triple agonist of SEQ ID NO: 69]
Data returned: 62.8

Continuing:
Data request: Look at this binder and give its reported In vitro activity (%) vs. GIP, cAMP EC50. H[Aib]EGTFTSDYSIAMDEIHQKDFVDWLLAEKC (bridge 16-20) [triple agonist of SEQ ID NO: 80]
Data returned: 0.1
